Source: PubChem BioAssay AID540276

- procedure.summary: qHTS for inhibitors of binding or entry into cells for Marburg Virus; further: potency means the concentration at half of the fitted maximal effect
- condition.summary: Marburg virus pseudotyped entry inhibition, cell reporter; series mostly up to 37.8 µM
Among all 300,000 compounds or so, about 5,400 (1.8%) were called active. Not shown: some 28% with an inconclusive outcome. Many of the other results were omitted from the sample, so actives are more common in it than they were.
assay.endpoint: Potency

[[record]]
molecule = "O=C(CC1SC(N2CCCC2)=NC1=O)Nc1ccc(C(=O)NCCc2ccc(F)cc2)cc1 (stereo unspecified)"
value = "inactive"

[[record]]
molecule = "O=C(CN1CCN(c2ccccc2)CC1)Nc1ccc(F)cc1"
value = "inactive"

[[record]]
molecule = "CCOC(=O)C1=C(CN2CCc3ccccc32)NC(=O)NC1c1ccc(Cl)cc1 (stereo unspecified)"
value = "16.4 µM (active)"

[[record]]
molecule = "O=C(Nc1ccccc1N1CCN(c2ccccc2)CC1)c1cccc(F)c1"
value = "inactive"

[[record]]
molecule = "O=C(OCC(=O)N1CCN(C(=O)c2ccco2)CC1)c1ccc(Cl)c(Cl)c1"
value = "inactive"

[[record]]
molecule = "COc1ccc(C(=O)Nc2ccccc2C(=O)N2CCN(c3ccccc3)CC2)cc1"
value = "inactive"

[[record]]
molecule = "CCCC(=O)Nc1ccccc1N1CCN(C(=O)c2ccccc2)CC1"
value = "inactive"

[[record]]
molecule = "CCCCC(=O)Nc1ccccc1N1CCN(c2ccc(F)cc2)CC1"
value = "11.2 µM (active)"

[[record]]
molecule = "O=C(COC(=O)c1c2c(nc3ccccc13)/C(=C\\c1cccs1)CCC2)Nc1ccccc1Cl"
value = "inactive"

[[record]]
molecule = "COC1C(CO)OC(n2cnc3c(=S)nc(N)[nH]c32)C1O (stereo unspecified)"
value = "inactive"

[[record]]
molecule = "CCC(=O)Nc1ccccc1N1CCN(S(C)(=O)=O)CC1"
value = "inactive"

[[record]]
molecule = "COc1cccc(C(=O)N2CCCC(CCC(=O)NCc3ccc(F)c(F)c3)C2)c1 (stereo unspecified)"
value = "inactive"

[[record]]
molecule = "O=C1C2C3C=CC(C3)C2C(=O)N1c1ncc([N+](=O)[O-])s1 (stereo unspecified)"
value = "inactive"

[[record]]
molecule = "Cc1cc(S(=O)(=O)N2CCOCC2)ccc1OCC(=O)N1CCOCC1"
value = "inactive"

[[record]]
molecule = "CCOC(=O)C1=C(c2ccccc2)Nc2ncnn2C1c1ccc(Cl)cc1 (stereo unspecified)"
value = "inactive"

[[record]]
molecule = "C[N+](C)(CCCCCC[N+](C)(C)CCCN1C(=O)c2cccc3cccc(c23)C1=O)CCCN1C(=O)c2cccc3cccc(c23)C1=O"
value = "5.01 µM (active)"

[[record]]
molecule = "Clc1ccc2c(c1)C1=C(C(c3ccncc3)O2)C(c2ccc(Br)cc2)n2ncnc2N1 (stereo unspecified)"
value = "11.6 µM (active)"

[[record]]
molecule = "Fc1ccc([C@H]2C3=C(Nc4ncnn42)c2ccccc2O[C@H]3c2ccncc2)cc1"
value = "inactive"

[[record]]
molecule = "O=C1c2ccccc2C(=O)N1CCCCCCN1C(=O)c2ccccc2C1=O"
value = "inactive"

[[record]]
molecule = "CCOC(=O)C1=C(C)NC(=O)NC1c1ccccc1 (stereo unspecified)"
value = "inactive"

[[record]]
molecule = "Cc1cccc(C(=O)N[C@H](C(=O)NCc2cccs2)C(C)C)c1"
value = "inactive"

